Recorded TGI, one value per entry.
# Test system: PC-3 prostate
# Measurement notes: NCI tumour cell line growth inhibition, 48 h

// below: answered compounds
O=C(CCCBr)Nc1ccccc1C#C/C=C\C#Cc1ccccc1C(F)(F)F ... > 50 µM
CC(c1ccccc1)N1C(=O)CSC1=S (stereo unspecified) ... > 100 µM
CN1N(c2ccccc2)C(=O)C2=NC=C(C(=O)c3ccccc3)C(=N)C21C (stereo unspecified) ... > 100 µM
C#CCCOC(=O)CC1=C(C)/C(=C/c2ccc(S(C)=O)cc2)c2ccc(F)cc21 (stereo unspecified) ... 28.7 µM
COc1cc(/C=C/[N+](=O)[O-])c([N+](=O)[O-])cc1OC ... 5.7 µM
CCCCN1C=CCN(CCCC)C1 ... > 100 µM
COc1ccc(-c2cc(C(=O)N3N=C(c4ccc(N)cc4)CC3c3ccc(Cl)cc3)c3ccccc3n2)cc1 (stereo unspecified) ... > 100 µM
CN1CCN(CCCNN)CC1 ... > 100 µM

Enquiry: Please report the measured TGI for COc1ccccc1/C=C/C(=O)c1ccc(Nc2nc(Nc3ccc(F)cc3)nc(Nc3ccc(F)cc3)n2)cc1
Return: > 100 µM

###

TGI reference
# System: SF-268 CNS
# Measurement notes: NCI tumour cell line growth inhibition, 48 h

Recorded TGI, per entry:
COc1ccc(/C=C/C(=O)c2c(O)c(C)c(O)c3c2OC2=CC(O)=C(C(C)=O)C(=O)[C@]23C)cc1 ... 4.72 µM
COc1cc(/C=C/[N+](=O)[O-])c([N+](=O)[O-])cc1OC ... 11.3 µM
CCOC(=O)CCC(C(=O)OCC)n1nc2ccc(Nc3c(C)[n+]([O-])c4ccc(Cl)cc4[n+]3[O-])cc2n1 (stereo unspecified) ... 36.3 µM
CN1N(c2ccccc2)C(=O)C2=NC=C(C(=O)c3ccccc3)C(=N)C21C (stereo unspecified) ... > 100 µM

Enquiry: For the molecule CC(C#N)NCc1ccc(C(C)NC(C)C#N)cc1 (stereo unspecified) , report TGI.
Return: > 100 µM

Enquiry: Name the recorded TGI of the item Cc1cc2c(cc1O)[nH]c1cc3c(cc12)C=CC(C)(C)O3 in your answer.
Return: > 25 µM

Enquiry: Fill in reported TGI for this entry: OCc1cc2c([nH]c3ccccc32)c(C(O)CO)n1 (stereo unspecified)
Return: > 100 µM

###

Quick reference for TGI among some molecules
# System: HCC-2998 colon
# Measurement notes: NCI tumour cell line growth inhibition, 48 h

CCCCN1C=CCN(CCCC)C1 ... > 100 µM
CCCCN(CC)C(=O)C1=C(C)NC(C)=C(C(=O)N(CC)CCCC)C1 ... > 100 µM
Cc1cccc(C)c1NC(=O)CCC(=O)NNc1nnc(C)n1N ... > 100 µM
COc1ccccc1N=NC(C(=O)c1ccccc1)C(=O)c1ccccc1 ... 70.4 µM
NCCCNc1nc2ccccc2c2c(=O)c3cccc(F)c3sc12 ... 3.41 µM
CCOC(=O)/C=C1/Oc2ccccc2C1(C)O (stereo not drawn) ... > 100 µM
CCCCCCCCCCCCCCCCOCC(Cl)CP(=O)(O)OP(=O)(O)OCC1OC(n2cnc3c(N)ncnc32)C(O)C1O (stereo not drawn) ... > 100 µM
CC(C)(C)OC(=O)C1=C(O)C(C(=O)OC(C)(C)C)C23CCCCC12C(C(=O)OC(C)(C)C)C(O)=C3C(=O)OC(C)(C)C (stereo not drawn) ... > 100 µM

Let us move to another entry and its TGI.
Enquiry: Hello, please tell me recorded TGI for this one: Cc1ccc(-c2cc(=O)c3cc4c(cc3[nH]2)OCO4)cc1
Return: 5.56 µM
